# TEST SUMMARY: NCI Yeast Anticancer Drug Screen. Data for the cln2 rad14 strain (AID 165);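 also: 0% = growth equal to vehicle treated cultures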
# CONDITION: S. cerevisiae cln2 rad14 strain, at 50.0 µM, active compounds read high
Compounds without any hit were thinned out: in the full panel of roughly 79,000, 15% have a hit.
Entries and their growth inhibition values follow.
// units = %; emit number, no label

Sample records with growth inhibition:
Cc1cn(C2CC(O)C(O)C(C)O2)c(=O)[nH]c1=O (stereo unspecified) ... 5.8
O=[N+]([O-])c1cc(Cl)ccc1NC(Nc1ccc(Cl)cc1[N+](=O)[O-])C(Cl)(Cl)Cl ... -31.9
Cc1ccc(S(=O)(=O)CCN2CCOCC2)cc1 ... -32.3
COC(=O)/C(=N\NC(N)=O)C(C#N)c1ccccc1 (stereo unspecified) ... -29.9
Nc1ccc(Cl)cc1N=Cc1ccccc1[N+](=O)[O-] ... -47.5

What growth inhibition value was documented for this compound, CCCCCC(=O)OCC[N+](C)(C)C ? 4.85

What growth inhibition value was documented for this compound, CN1C(=O)c2cnc3ccccc3c2C1(O)c1ccccc1 (stereo unspecified) ? 5.25

What growth inhibition value was documented for this compound, Nc1cc(C(=O)O)cc2ccccc12 ? -7.95

----------
# TEST SUMMARY: NCI Yeast Anticancer Drug Screen. Data for the sgs1 mgt1 strain (AID 161);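 also: 0% = growth of cultures given vehicle only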
# CONDITION: S. cerevisiae sgs1 mgt1 strain, at 50.0 µM, active compounds read high
Compounds without any hit were thinned out: in the full panel of roughly 79,000, 15% have a hit.
MEASUREMENT NAME: growth inhibition (%)
// units = %; emit number, no label

Sample records with growth inhibition:
O=C(Oc1c(OC(=O)c2ccccc2)c2ccccc2c2ccccc12)c1ccccc1 ... 7.85
NC12CCC(CC1)C2 ... -14.1
CCOC(=O)/C(=C/c1cn(C(C)=O)c2ccccc12)P(=O)(OC)OC ... -1.15
O=C(O)CCc1nc(-c2ccccc2-n2cccc2)no1 ... -30.4
O=C1CN2C(c3ccccc3)=NN(c3ccc([N+](=O)[O-])cc3)C2(c2ccccc2)c2cc(Cl)ccc2N1CC1CC1 (stereo unspecified) ... -7.4
CCNC(=O)N(C)Cc1ccc(Cl)cc1 ... -11.6

What growth inhibition value was documented for this compound, COC(=O)C(C)(NC(=O)C(CC(=O)OC(C)(C)C)NC(=O)OC(C)(C)C)c1ccccc1 (stereo unspecified) ? 46.5

What growth inhibition value was documented for this compound, O=c1[nH]c(SCc2ccco2)nc2ccccc12 ? 6.3

What growth inhibition value was documented for this compound, O.[Cl][Pt].[NH-]CC[S-] ? 12.3

What growth inhibition value was documented for this compound, O=C(O)c1ccc2ccccc2c1C(=O)O ? 0.25

What growth inhibition value was documented for this compound, CC(C)=C1C=C(C(C)(C)C)C(=O)C(C(C)(C)C)=C1 ? -1.8

----------
# TEST SUMMARY: NCI Yeast Anticancer Drug Screen. Data for the mlh1 rad18 strain (AID 175)
# CONDITION: S. cerevisiae mlh1 rad18 strain growth inhibition; at 50.0 µM; active compounds read high
# Protocol: Growth inhibition of yeast strains with defined genetic alterations is measured as a screen for potential anti-cancer activity. Selected strains with alterations in DNA damage repair or cell cycle control were exposed to compounds and growth inhibition was measured relative to vehicle treated controls. The strain used in this assay is mlh1 rad18
This is part of a sample that, as a whole, favours compounds with a hit. Of some 79,000 tested, about 15% had one in any assay.
Entries and their growth inhibition values follow.
// units = %; emit number, no label

Sample records with growth inhibition:
N#CC1(Cc2ccccc2)c2ccccc2-c2ccccc21 ... 45
CCN(CC)c1nc(NNS(=O)(=O)c2ccccc2)nc(N(CC)CC)n1 ... 11
CCCOC(=O)CCBr ... -8.1
COc1cccc2c1oc(=O)c1ccccc12 ... -5.85
COc1ccc(CC(O)CN2CCC(CCN)CC2)cc1 (stereo unspecified) ... -5.65
C[N+]1=C(/C=C/c2ccnc3c(O)cccc23)C(C)(C)c2ccccc21 ... 8.65

What growth inhibition value was documented for this compound, O=C(C[n+]1cccc2cccc(O)c21)c1ccc2ccccc2c1 ? 2.7

What growth inhibition value was documented for this compound, N#CCCn1c2ccccc2c2ccccc21 ? -0.5

What growth inhibition value was documented for this compound, O=C(O)Cc1ccc(OCCCCCOc2ccc(CC(=O)O)cc2)cc1 ? 4.35

What growth inhibition value was documented for this compound, CC(O)C(N=Cc1nc(-c2ccccc2)oc1O)C(=O)O (stereo unspecified) ? 7.05

What growth inhibition value was documented for this compound, CC1OC2=N[C@@H]1C(=O)N[C@@H](C(C)C)C1=N[C@H](C(=O)N[C@@H](C(C)C)C3=N[C@H](C(=O)N[C@@H](C(C)C)C4=N[C@H](C(=O)N[C@H]2C(C)C)C(C)O4)C(C)O3)C(C)O1 (stereo partly specified) ? 9.55
